Reference for the values: patent US20100063065A1

- System Name: PPARδ (Homo sapiens, UniProt Q03181)
- Construct: fused to amino acids 147-441 of PPARδ downstream of CMV promoter; expressed in transfected cells; host or cells: HEK293 cells, transiently transfected with pFACMV-PPARδ using Fugene
- Sequence (Q03181 147-441): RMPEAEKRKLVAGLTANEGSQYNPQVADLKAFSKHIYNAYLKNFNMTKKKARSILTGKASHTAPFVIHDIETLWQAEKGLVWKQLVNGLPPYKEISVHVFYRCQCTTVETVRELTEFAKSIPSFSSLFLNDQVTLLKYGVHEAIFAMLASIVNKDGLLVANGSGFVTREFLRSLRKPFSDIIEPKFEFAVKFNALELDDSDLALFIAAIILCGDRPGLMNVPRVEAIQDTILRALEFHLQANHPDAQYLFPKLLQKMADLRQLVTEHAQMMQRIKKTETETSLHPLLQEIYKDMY
- Protocol Notes: Transactivation assay (PPARδ GAL4 assay) in transiently transfected HEK293 cells
- Assay type: cell-based
- Measurement Setup: luciferase reporter, Table 2
pEC50: −log10 of the molar value.
Endpoint: pEC50

Consider the reported pEC50 for these molecules:
CCc1cc(C(=O)c2nc3ccc(Cl)cc3s2)c(NC(=O)CSCC(=O)O)s1: 6.00 to 7.00
CCc1cc(C(=O)c2ccc(OC(F)(F)F)cc2)c(NC(=O)CCSCC(=O)O)s1: > 7.00
CCc1cc(C(=O)c2ccc(OC(F)(F)F)cc2)c(NC(=O)CN([C@@H](C)C(=O)O)S(C)(=O)=O)s1: 4.52 to 6.00

*Q* Lab request: please report pEC50 under test system PPARδ (Homo sapiens, UniProt Q03181) for CCc1cc(C(=O)c2ccc(Cl)cc2)c(NC(=O)CSc2ccc(OCC(=O)O)cc2)s1
*A* 4.52 to 6.00
